- TARGET_SYSTEM: T1, 人OX40 (Jurkat-OX40细胞) (human, UniProt P43489 29-277)
- T1 construct: whole, on cells; also called OX40受体; CD134
- T1 sequence (looked up): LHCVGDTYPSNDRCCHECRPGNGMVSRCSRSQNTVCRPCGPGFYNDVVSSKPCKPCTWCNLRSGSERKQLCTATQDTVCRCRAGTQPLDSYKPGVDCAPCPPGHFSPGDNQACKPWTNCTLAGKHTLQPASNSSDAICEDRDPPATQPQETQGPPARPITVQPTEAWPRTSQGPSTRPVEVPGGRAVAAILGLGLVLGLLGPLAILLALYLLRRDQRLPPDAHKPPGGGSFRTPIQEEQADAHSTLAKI
- EXPERIMENTAL_DETAILS: FACS on Jurkat-OX40 cells (Fig. 3)
REPORTED_PROPERTY: binding result

抗人OX40鼠源抗体3C9 (antibody, V domains shown, Mouse hybridoma antibody purified by Protein A) VH: DVQLQQSGPELVKPGASVRMSCKASGYTFTSYIMHWVKQKPGQGLEWIGYINPYNGGSRYNDKFKVKATLASDKSSSTAYMELSSLTSADSAVYYCARGDYDDGAWFGYWGQGTLVTVSA VL: EIQMTQAAPSVPVTPGESVSISCKSSQSLLHSNGITYLFWYLQRPGQSPQLLIYRMSNRASGVPDRFSSSGSGTAFTLKISRVEADDVGVYYCGQNLELPVTFGAGTKVELK: binds
抗人OX40鼠源抗体3D9 (antibody, V domains shown, Mouse hybridoma antibody purified by Protein A) VH: QVQLQESGPGLVAPSQSLSITCTVSGFSLTTYGITWVRQPPGKGLEWLGVIWDDGSTNYHSALISRLSISKNNYKSQVFLTLNSLQTDDTATYYCAKLLPYYFDSWGQGTTLTVSS VL: DIVMTQSPSSLSASLGDRVTISCRASQDISNYLNWYQQKPNGTVKLLIYYTSRLLSGVPSRFSGSGSGTDYSLTISSLEQEDIATYFCQQGYTLPPTFGGGTKLEIK: binds
